# EXPERIMENTAL_SYSTEM: Calcitonin gene-related peptide type 1 receptor (Homo sapiens, UniProt O60894+Q16602)
# Sequence (Q16602 whole entry, one chain of several): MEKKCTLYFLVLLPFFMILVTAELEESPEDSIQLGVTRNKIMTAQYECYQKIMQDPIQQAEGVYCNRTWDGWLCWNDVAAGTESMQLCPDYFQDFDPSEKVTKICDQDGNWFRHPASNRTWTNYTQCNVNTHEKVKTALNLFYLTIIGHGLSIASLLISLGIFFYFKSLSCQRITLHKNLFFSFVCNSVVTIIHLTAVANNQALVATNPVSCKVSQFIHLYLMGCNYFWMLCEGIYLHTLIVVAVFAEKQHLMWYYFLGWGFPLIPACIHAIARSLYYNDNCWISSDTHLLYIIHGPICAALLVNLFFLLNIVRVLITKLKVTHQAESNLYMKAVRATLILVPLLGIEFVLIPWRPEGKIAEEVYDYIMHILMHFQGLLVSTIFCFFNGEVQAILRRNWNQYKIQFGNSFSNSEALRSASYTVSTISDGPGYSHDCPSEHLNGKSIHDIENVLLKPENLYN
# ASSAY_NOTES: Displacement of [125I]hCGRP from human cloned CGRP receptor expressed in HEK293 cells
pKi: −log10 of the molar value.
EXPERIMENTAL_READOUT: pKi

The following compounds have reported results that may help.
# COMPOUND, pKi
data = [
    ("NCC12CC(=O)Nc3cccc(c31)N(Cc1ccc3cc4c(cc3n1)C[C@]1(C4)C(=O)Nc3ncccc31)C2=O (stereo partly specified)", 9.89),
    ("CN1C(=O)NC(=O)C12Cc1ccc(NC(=O)CN(Cc3ccc(F)cc3)C(=O)C(C)(C)C)cc1C2 (racemic)", 8.43),
]

[1] C[C@@H](c1ccccc1)N(CC(=O)Nc1ccc2c(c1)C[C@@]1(C2)C(=O)NC(=O)N1C)C(=O)C(C)(C)C
[2] CN1C(=O)NC(=O)C12Cc1ccc(NC(=O)CN(Cc3ccc(C(F)(F)F)cc3)C(=O)C(C)(C)C)cc1C2 (racemic)
Hey, between 1 and 2 which has a smaller measured pKi? // return label of chosen record
1

[P] COc1cccc(CN(CC(=O)Nc2ccc3c(c2)CC2(C3)C(=O)NC(=O)N2C)C(=O)C(C)(C)C)c1 (racemic)
[Q] CN1C(=O)NC(=O)C12Cc1ccc(NC(=O)CN(Cc3cccc(F)c3)C(=O)C(C)(C)C)cc1C2 (racemic)
Hey, between P and Q which has a smaller measured pKi? // return label of chosen record
P
(P: 7.35, Q: 8.80)

[I] C[C@H](c1cc(F)cc(F)c1)N(CC(=O)Nc1ccc2c(c1)C[C@@]1(C2)C(=O)NC(=O)N1C)C(=O)C(C)(C)C
[II] CN1C(=O)NC(=O)C12Cc1ccc(NC(=O)CN(Cc3cccc(C#N)c3)C(=O)C(C)(C)C)cc1C2 (racemic)
Select one: I or II . Criterion: greater recorded pKi. // return label of chosen record
I

[A] Cc1cccc(CN(CC(=O)Nc2ccc3c(c2)CC2(C3)C(=O)NC(=O)N2C)C(=O)C(C)(C)C)c1 (racemic)
[B] CC1(C)CC[C@@H](c2c(F)cccc2F)N(CC(=O)Nc2ccc3c(c2)C[C@]2(C3)C(=O)Nc3ncccc32)C1=O
[C] CN1C(=O)NC(=O)[C@@]12Cc1ccc(NC(=O)CN(Cc3cc(Cl)cc(Cl)c3)C(=O)C(C)(C)C)cc1C2
Falling order of pKi, please. Sort the labels as requested; that list is your answer.
B, C, A

[1] CN1C(=O)NC(=O)[C@@]12Cc1ccc(NC(=O)CN(Cc3cc(F)cc(F)c3)C(=O)C(C)(C)C)cc1C2
[2] CN1C(=O)NC(=O)[C@@]12Cc1ccc(NC(=O)CN(Cc3cc(F)cc(Cl)c3)C(=O)C(C)(C)C)cc1C2
Select one: 1 or 2 . Criterion: greater recorded pKi. // return label of chosen record
1
(1: 9.26, 2: 8.92)

[I] CN1C(=O)NC(=O)C12Cc1ccc(NC(=O)CN(Cc3cccc(Cl)c3)C(=O)C(C)(C)C)cc1C2 (racemic)
[II] C[C@H](c1ccccc1)N(CC(=O)Nc1ccc2c(c1)C[C@@]1(C2)C(=O)NC(=O)N1C)C(=O)C(C)(C)C
[III] CN1C(=O)NC(=O)C12Cc1ccc(NC(=O)CN(Cc3ccccc3F)C(=O)C(C)(C)C)cc1C2 (racemic)
Falling order of pKi, please. Sort the labels as requested; that list is your answer.
II, I, III
(II: 9.08, I: 8.74, III: 7.85)
